This section lists Ki readings for UniProt:P22894.
Metric name: Ki (µM)

- CNC(=O)[C@@H](NC(=O)[C@@H]1[C@H](Cc2ccccc2)CCN1C(=O)[C@@H](S)C(C)C)C(C)(C)C: 3
- CNC(=O)[C@H](Cc1cccnc1)NC(=O)[C@@H]1[C@H](Cc2ccccc2)CCN1C(=O)[C@@H](S)C(C)C: 4

###

This section lists Ki readings for MMP-14 (Homo sapiens).
Metric name: Ki

• CNC(=O)[C@H](Cc1cccnc1)NC(=O)[C@@H]1[C@@H](Cc2ccccc2)CCN1C(=O)[C@@H](S)C(C)C [Compound 1c] = > 10 µM
• CNC(=O)[C@H](Cc1ccc(O)cc1)NC(=O)[C@@H]1[C@@H](Cc2ccccc2)CCN1C(=O)[C@@H](S)C(C)C [Compound 1a] = > 10 µM
• CNC(=O)[C@@H](NC(=O)[C@@H]1[C@H](Cc2ccccc2)CCN1C(=O)[C@@H](S)C(C)C)C(C)(C)C [Compound 1h] = > 10 µM
• CNC(=O)[C@@H](NC(=O)[C@@H]1[C@@H](Cc2ccccc2)CCN1C(=O)[C@@H](S)C(C)C)C(C)(C)C [Compound 1g] = > 10 µM

###

Reported pKi values are given for each entry in this list.
# Target under test: MMP-8 (Homo sapiens, UniProt P22894)
# Sequence (P22894 101-467): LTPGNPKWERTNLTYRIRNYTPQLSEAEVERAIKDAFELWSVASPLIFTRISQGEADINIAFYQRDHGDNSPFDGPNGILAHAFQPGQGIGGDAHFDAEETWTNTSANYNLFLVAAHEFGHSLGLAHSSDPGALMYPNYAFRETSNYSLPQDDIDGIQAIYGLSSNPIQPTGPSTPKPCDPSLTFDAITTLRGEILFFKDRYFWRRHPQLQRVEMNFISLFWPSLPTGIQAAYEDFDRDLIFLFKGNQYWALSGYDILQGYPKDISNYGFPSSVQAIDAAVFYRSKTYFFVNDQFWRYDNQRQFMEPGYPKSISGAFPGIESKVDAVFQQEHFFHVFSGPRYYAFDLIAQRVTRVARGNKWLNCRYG
pKi: −log10 of the molar value.
Metric name: pKi

- CNC(=O)[C@H](Cc1ccc(O)cc1)NC(=O)[C@@H]1[C@@H](Cc2ccccc2)CCN1C(=O)[C@@H](S)C(C)C: < 5.00
- CNC(=O)[C@@H](Cc1cccnc1)NC(=O)[C@@H]1[C@@H](Cc2ccccc2)CCN1C(=O)[C@@H](S)C(C)C: < 5.00
- CNC(=O)[C@@H](NC(=O)[C@@H]1[C@@H](Cc2ccccc2)CCN1C(=O)[C@@H](S)C(C)C)C(C)(C)C: < 5.00

Reference for the values: patent US6486193B2
